Data origin, for the record: paper PMC5540273

Test system: S6K1;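 further: KINOMEscan kinase panel screen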
Details: concentration: 1 μM,replicates: in singlicate; n = 1
READOUT_KIND: %Inh (%)
# number only, unit % dropped from output

Sample records with %Inh:
- QUERY_SMILES: "CN(c1ccc2c(c1)nc(NCc1ccc(F)cc1)n2C)c1ccnc(Nc2ccc(CS(C)(=O)=O)cc2)n1.Cl"
  SUBJECT_OF_TEST: "S6K1"
  VALUE: 11
- QUERY_SMILES: "CNC(=O)c1ccccc1Nc1nc(Nc2cccc(CS(C)(=O)=O)c2)ncc1C.O=CO"
  SUBJECT_OF_TEST: "S6K1"
  VALUE: 85
- QUERY_SMILES: "COc1cc2ncn(-c3cc(OCC4CCCCC4)c(C(N)=O)s3)c2cc1OC"
  SUBJECT_OF_TEST: "S6K1"
  VALUE: 0
- QUERY_SMILES: "O=C(Nc1cccc(Oc2ccc3nccn3n2)c1)Nc1cccc(C(F)(F)F)c1"
  SUBJECT_OF_TEST: "S6K1"
  VALUE: 0

Lab book: %Inh of CCn1c(-c2nonc2N)nc2cncc(CNC3CCNCC3)c21.Cl noted as 60
